target: IDH1^R132H homodimer enzyme (Homo sapiens, UniProt O75874, R132H); assay: NADPH depletion assay, IDH1 R132H
Sequence (O75874 whole entry R132H): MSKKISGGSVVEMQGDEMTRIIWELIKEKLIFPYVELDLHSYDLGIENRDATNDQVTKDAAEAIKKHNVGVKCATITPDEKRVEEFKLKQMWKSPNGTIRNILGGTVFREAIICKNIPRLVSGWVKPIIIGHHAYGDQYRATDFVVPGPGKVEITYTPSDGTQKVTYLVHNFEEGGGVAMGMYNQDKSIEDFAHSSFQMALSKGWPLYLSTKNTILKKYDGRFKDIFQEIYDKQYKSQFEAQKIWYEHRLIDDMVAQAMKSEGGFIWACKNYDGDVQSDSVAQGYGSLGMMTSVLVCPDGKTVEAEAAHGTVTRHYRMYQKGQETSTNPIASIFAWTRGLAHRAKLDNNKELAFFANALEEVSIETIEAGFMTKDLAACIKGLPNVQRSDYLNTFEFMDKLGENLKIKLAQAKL
measured-attribute: IC50 (nM)

C[C@H](Nc1ncc2ccc(=O)n(CC(C)(C)C)c2n1)c1ccc(C(=O)NC2CC(F)(F)C2)cc1 [cpd 85] = 1770
COC(=O)c1ccc([C@H](C)Nc2ncc3ccc(=O)n(Cc4ccc(F)cc4)c3n2)cc1 [cpd 6] = 3340
C[C@H](Nc1ncc2ccc(=O)n(Cc3ccccc3)c2n1)c1nc(-c2ccc(Cl)cc2)no1 [cpd 53] = 941
C[C@H](Nc1ncc2cc(F)c(=O)n(CC(C)(C)C)c2n1)c1ccc(CN2CCCC(F)(F)C2)cc1 [cpd 57] = 543

a = COc1cccc(Cn2c(=O)ccc3cnc(N[C@@H](C)c4ccc(Cl)cc4)nc32)c1 [cpd 30]
b = CC(C)[C@H](C)n1c(=O)ccc2cnc(N[C@@H](C)c3ccc(CN4CCC(F)(F)CC4)c(F)c3)nc21 [cpd 67]
c = CCCC(C)(CO)Cn1c(=O)ccc2cnc(N[C@@H](C)c3ccc(CN4CCC(F)(F)CC4)cc3)nc21 (some centres unmarked) [cpd 120]
d = C=CC(=O)N1CCN(Cc2ccc([C@H](C)Nc3nc(OCC)c4ccc(=O)n(CC(C)(C)C)c4n3)cc2)CC1 [cpd 201]
Query: Rank entries according to their IC50, from the largest number down. Please respond with the labels ordered as the question requires.
Response: a, d, c, b
(a: 1340 nM, d: 420 nM, c: 221 nM, b: 37 nM)

The measured values listed here are drawn from patent US12018023B2.
